- measurementTarget: CA XIV (Homo sapiens)
- Sequence (Q9ULX7 16-337): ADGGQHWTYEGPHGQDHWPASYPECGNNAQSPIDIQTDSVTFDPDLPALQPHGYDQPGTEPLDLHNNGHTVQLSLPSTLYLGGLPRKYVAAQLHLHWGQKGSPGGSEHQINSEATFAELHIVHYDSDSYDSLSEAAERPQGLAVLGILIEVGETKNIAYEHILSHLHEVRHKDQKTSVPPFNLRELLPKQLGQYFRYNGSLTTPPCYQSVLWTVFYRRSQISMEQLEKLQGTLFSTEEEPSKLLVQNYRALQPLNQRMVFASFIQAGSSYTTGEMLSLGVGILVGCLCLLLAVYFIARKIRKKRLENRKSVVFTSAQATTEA
Kindly note that classification relies on Kd with these boundaries: low end: < 0.09 µM; middle: ≥ 0.09 µM and < 0.4 µM; high end: ≥ 0.4 µM

Sample answers from the record:
{"compound": "NS(=O)(=O)c1cc2c(cc1Cl)NCNS2(=O)=O [Compound 4, hydrochlorothiazide]", "assignedLabel": "high end"}
{"compound": "C=CCSCC1Nc2cc(Cl)c(S(N)(=O)=O)cc2S(=O)(=O)N1 (centres unmarked) [Compound 9, althiazide]", "assignedLabel": "low end"}

input: Which bin, given its Kd, does C[C@@H]1CCC[C@H](C)N1NC(=O)c1ccc(Cl)c(S(N)(=O)=O)c1 [Compound 13, clopamide] occupy?
output: middle

input: What about this compound? NS(=O)(=O)c1cc(C2(O)NC(=O)c3ccccc32)ccc1Cl (centres unmarked)
output: low end

input: Next compound up: NS(=O)(=O)c1cc2c(cc1Cl)CN(C1CCCCC1)C2=O [Compound 17, Clorexolone]
output: low end

input: Record: CCC1NC(=O)c2cc(S(N)(=O)=O)c(Cl)cc2N1 (centres unmarked)
output: high end

input: Next compound: NS(=O)(=O)c1cc2c(cc1Cl)N=CNS2(=O)=O [Compound 3, chlorothiazide]
output: middle

###

- measurementTarget: CA XIII (Homo sapiens)
- Sequence (Q8N1Q1 whole entry): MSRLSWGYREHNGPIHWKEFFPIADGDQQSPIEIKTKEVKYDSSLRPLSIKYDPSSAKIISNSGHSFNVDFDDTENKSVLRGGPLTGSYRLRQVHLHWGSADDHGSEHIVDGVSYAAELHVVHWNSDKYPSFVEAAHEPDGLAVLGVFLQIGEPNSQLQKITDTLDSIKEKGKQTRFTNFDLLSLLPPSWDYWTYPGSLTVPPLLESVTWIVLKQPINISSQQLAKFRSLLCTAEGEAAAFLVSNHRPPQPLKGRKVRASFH
Under this convention, 1 (yes) denotes Kd strictly below 200 nM and 0 (no) denotes Kd at or above 200 nM.

Record excerpt, results attached:
{"compound": "NS(=O)(=O)c1cc2c(cc1Cl)N=C(CSCc1ccccc1)NS2(=O)=O [Compound 8, benzthiazide]", "assignedLabel": "1 (yes)"}
{"compound": "NS(=O)(=O)c1cc(Cl)c(Cl)c(S(N)(=O)=O)c1 [Compound 2, Dichlorphenamide]", "assignedLabel": "1 (yes)"}

input: Hello, I'm reviewing records and need to know if Kd of Cc1ccccc1N1C(=O)c2cc(S(N)(=O)=O)c(Cl)cc2NC1C (stereo not drawn) is below 200 nM. Could you check?
output: 1 (yes)

input: Next entry: NS(=O)(=O)c1cc2c(cc1Cl)NC(c1ccccc1)NC2=O (stereo not drawn)
output: 0 (no)

input: Then this compound: NS(=O)(=O)c1cc(C2(O)NC(=O)c3ccccc32)ccc1Cl (stereo not drawn)
output: 1 (yes)

input: Request: CN1C(CSCC(F)(F)F)Nc2cc(Cl)c(S(N)(=O)=O)cc2S1(=O)=O (stereo not drawn) [Compound 7, polythiazide]
output: 1 (yes)

###

- measurementTarget: CA VA (Homo sapiens)
- Sequence (P35218 39-305): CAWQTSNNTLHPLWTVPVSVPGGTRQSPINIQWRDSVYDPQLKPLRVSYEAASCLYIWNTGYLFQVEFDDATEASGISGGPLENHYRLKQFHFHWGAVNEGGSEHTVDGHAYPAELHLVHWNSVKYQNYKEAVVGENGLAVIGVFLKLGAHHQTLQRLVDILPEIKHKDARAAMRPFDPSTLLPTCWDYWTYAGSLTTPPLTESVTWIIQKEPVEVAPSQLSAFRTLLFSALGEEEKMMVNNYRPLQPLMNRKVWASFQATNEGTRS
// values below are reported Kd
State the answer as a number, implicitly in nM.

The examples below pair each entry with its known result.
{"compound": "Cc1ccccc1N1C(=O)c2cc(S(N)(=O)=O)c(Cl)cc2NC1C (stereo not drawn)", "measuredNumber": 5800}
{"compound": "NS(=O)(=O)c1cc2c(cc1C(F)(F)F)NCNS2(=O)=O [Compound 10, hydroflumethiazide]", "measuredNumber": 40000}
{"compound": "NS(=O)(=O)c1cc2c(cc1Cl)N=C(CSCc1ccccc1)NS2(=O)=O [Compound 8, benzthiazide]", "measuredNumber": 90}
{"compound": "C[C@@H]1CCC[C@H](C)N1NC(=O)c1ccc(Cl)c(S(N)(=O)=O)c1 [Compound 13, clopamide]", "measuredNumber": 440}
{"compound": "CCC1NC(=O)c2cc(S(N)(=O)=O)c(Cl)cc2N1 (stereo not drawn)", "measuredNumber": 7100}
{"compound": "CC1Cc2ccccc2N1NC(=O)c1ccc(Cl)c(S(N)(=O)=O)c1 (stereo not drawn) [Compound 12, Indapamide]", "measuredNumber": 280}
{"compound": "NS(=O)(=O)c1cc2c(cc1C(F)(F)F)NC(Cc1ccccc1)NS2(=O)=O (stereo not drawn) [Compound 11, bendroflumethiazide]", "measuredNumber": 32000}
{"compound": "NS(=O)(=O)c1cc2c(cc1Cl)CN(C1CCCCC1)C2=O [Compound 17, Clorexolone]", "measuredNumber": 42000}
{"compound": "CN1C(CSCC(F)(F)F)Nc2cc(Cl)c(S(N)(=O)=O)cc2S1(=O)=O (stereo not drawn) [Compound 7, polythiazide]", "measuredNumber": 5000}
{"compound": "NS(=O)(=O)c1ccccc1Cl [Compound 1, 2-chloro-benzenesulfonamide]", "measuredNumber": 320}

input: Give Kd (CA VA (Homo sapiens)) of the following compound: C=CCSCC1Nc2cc(Cl)c(S(N)(=O)=O)cc2S(=O)(=O)N1 (stereo not drawn) [Compound 9, althiazide]
output: 1500

input: How about NS(=O)(=O)c1cc(Cl)c(Cl)c(S(N)(=O)=O)c1 [Compound 2, Dichlorphenamide] ?
output: 25

input: Next record, please: NS(=O)(=O)c1cc2c(cc1Cl)NCNS2(=O)=O [Compound 4, hydrochlorothiazide]
output: 2000
